System: Staphylococcus aureus
Test: Minimum Inhibitory concentration against Staphylococcus aureus (CECT240)
Assay type: functional
Strictly below 100 µg/mL in MIC90: true. Otherwise: false.

- Mol: "COc1cc2ccc(=O)oc2c(O[C@@H]2O[C@H](CO)[C@@H](O)[C@H](O)[C@H]2O)c1O"
  Assayed Target: "Staphylococcus aureus"
  Cat: "false"
- Mol: "CC(=O)Nc1cc(C)cc(/N=N/c2cc([N+](=O)[O-])cc([N+](=O)[O-])c2O)c1O"
  Assayed Target: "Staphylococcus aureus"
  Cat: "false"
- Mol: "COc1ccc([C@@H]2CC(=O)c3c(O)cc(O[C@@H]4O[C@H](CO[C@@H]5O[C@@H](C)[C@H](O)[C@@H](O)[C@H]5O)[C@@H](O)[C@H](O)[C@H]4O)cc3O2)cc1O"
  Assayed Target: "Staphylococcus aureus"
  Cat: "true"
- Mol: "O=c1c(O)c(-c2ccc(O)cc2O)oc2cc(O)cc(O)c12"
  Assayed Target: "Staphylococcus aureus"
  Cat: "false"
- Mol: "O=C(O)c1cccnc1Nc1cccc(C(F)(F)F)c1"
  Assayed Target: "Staphylococcus aureus"
  Cat: "false"

Next item in the queue.
Query string: # strict comparison: is reported MIC90 < 100 µg/mL? input = `COc1ccc([C@@H]2CC(=O)c3c(O)cc(O[C@@H]4O[C@H](CO)[C@@H](O)[C@H](O)[C@H]4O[C@@H]4O[C@@H](C)[C@H](O)[C@@H](O)[C@H]4O)cc3O2)cc1O`
Result string: false
